tested on: Key Broadleaf Weed and Crop Species; assay: Post-Emergent Test II: postemergent herbicidal activity, visual rating after 14 d (Table 7); type: in vivo; conditions: post-emergence, 336 h, velvetleaf (Abutilon theophrasti), 140 g ai/ha, read-out: Visual Growth Reduction (%) 14 Days After Application ABUTH

# record.smiles, pest or weed control at 140 g/ha
measured = [
    ("C=Cc1c(C(=O)OC)nc(-c2cc3c(cc2F)OC(F)(F)O3)c(F)c1N", "0 to 29%"),
    ("COC(=O)c1nc(-c2cc3c(cc2F)OC(F)(F)O3)c(F)c(N)c1F", "0 to 29%"),
    ("Nc1cc(-c2ccc3c(c2F)OC(F)(F)O3)nc(C(=O)O)c1Cl", "75 to 84%"),
    ("COC(=O)c1nc(-c2cccc3c2OCO3)c(F)c(N)c1Cl", "95 to 100%"),
    ("COc1c(N)nc(-c2ccc3c(c2)OC(F)(F)O3)nc1C(=O)O", "85 to 94%"),
    ("COc1c(C(=O)O)nc(-c2cc3c(cc2F)OC(F)(F)O3)c(F)c1N", "0 to 29%"),
    ("COC(=O)c1nc(-c2ccc(F)c3c2OC(F)(F)O3)c(F)c(N)c1Cl", "85 to 94%"),
    ("COC(=O)c1nc(-c2ccc3c(c2F)OC(F)(F)O3)nc(N)c1Cl", "75 to 84%"),
]

---

Listed below: GR20 TRZAS values for each entry.
tested on: Wheat and Barley and weed species; assay: Post-Emergent Test III: postemergent herbicidal activity in wheat and barley, visual rating after 21 d and probit GR20/GR50/GR80/GR90 (Tables 9-13); format: in vivo; details: TRZAS wheat, spring (crop); growth reduction of 20%; probit analysis

# record.smiles, GR20 TRZAS (g ai/ha)
measured = [
    ("Nc1cc(-c2cc3c(cc2F)OC(F)(F)O3)nc(C(=O)O)c1Cl", 0.20),
    ("COC(=O)c1nc(-c2cc3c(cc2F)OC(F)(F)O3)cc(N)c1Cl", 1),
    ("Nc1c(F)c(-c2ccc3c(c2F)OC(F)(F)O3)nc(C(=O)O)c1Cl", 0.12),
    ("Nc1c(F)c(-c2ccc(Cl)c3c2OC(F)(F)O3)nc(C(=O)O)c1Cl", 4),
    ("COC(=O)c1nc(-c2cc3c(cc2F)OC(F)(F)O3)c(F)c(N)c1Cl", 4),
    ("Nc1c(F)c(-c2ccc3c(c2)OC(F)(F)O3)nc(C(=O)O)c1Cl", 3),
    ("COC(=O)c1nc(-c2c(F)cc3c(c2F)OC(F)(F)O3)cc(N)c1Cl", 10),
    ("COC(=O)c1nc(-c2ccc3c(c2)OC(C)(C)O3)c(F)c(N)c1Cl", 6),
    ("COC(=O)c1nc(-c2ccc(Br)c3c2OC(F)(F)O3)c(F)c(N)c1Cl", 20),
    ("COC(=O)c1nc(-c2ccc3c(c2F)OC(F)(F)O3)c(F)c(N)c1Cl", 4),
    ("Nc1c(F)c(-c2cc3c(cc2F)OC(F)(F)O3)nc(C(=O)O)c1Cl", 2),
]

---

Listed below: pest or weed control at 70 g/ha values for each entry.
Test system: Key Broadleaf Weed and Crop Species
Assay: Post-Emergent Test II: postemergent herbicidal activity, visual rating after 14 d (Table 7)
Type: in vivo
Conditions: post-emergence, 336 h, BRSNN: oilseed rape, canola (Brassica napus), 70 g ai/ha, read-out: Visual Growth Reduction (%) 14 Days After Application BRSNN
Experimental: Herbicidal evaluations were made visually on a scale of 0 to 100 where 0 represents no activity and 100 represents complete plant death. […] A weighed amount, determined by the highest rate to be tested, of each test compound was placed in a 25 mL glass vial and was dissolved in 4 mL of a 97:3 v/v mixture of acetone and DMSO to obtain concentrated stock solutions. […]

# record.smiles, pest or weed control at 70 g/ha
rows = [
    ("COc1c(N)nc(-c2ccc(Cl)c3c2OC(F)(F)O3)nc1C(=O)O", "75 to 84%"),
    ("COC(=O)c1nc(-c2ccc(Cl)c3c2OC(F)(F)O3)c(C)c(N)c1Cl", "0 to 29%"),
    ("COC(=O)c1nc(-c2ccc(F)c3c2OCO3)c(F)c(N)c1Cl", "95 to 100%"),
    ("COC(=O)c1nc(-c2ccc(Cl)c3c2OC(F)(F)O3)cc(N)c1Cl", "75 to 84%"),
    ("Nc1c(F)c(-c2ccc3c(c2)OCC3)nc(C(=O)O)c1Cl", "85 to 94%"),
    ("COC(=O)c1nc(-c2ccc3c(c2)OCC3)c(F)c(N)c1Cl", "0 to 29%"),
    ("Nc1c(F)c(-c2ccc3c(c2)COC3)nc(C(=O)O)c1Cl", "0 to 29%"),
    ("COC(=O)c1nc(-c2c(F)ccc3c2OC(F)(F)O3)cc(N)c1Cl", "0 to 29%"),
    ("COC(=O)c1nc(-c2ccc3c(c2F)OC(F)(F)C3(F)F)cc(N)c1Cl", "0 to 29%"),
    ("Nc1cc(-c2c(F)ccc3c2OC(F)(F)O3)nc(C(=O)O)c1Cl", "45 to 59%"),
    ("COC(=O)c1nc(-c2cccc3c2OCO3)nc(N)c1OC", "0 to 29%"),
    ("COC(=O)c1nc(-c2cccc3c2OC(F)(F)O3)cc(N)c1Cl", "75 to 84%"),
    ("COC(=O)c1nc(-c2ccc3c(c2)COC3)c(F)c(N)c1Cl", "0 to 29%"),
    ("Nc1cc(-c2ccc(Cl)c3c2OC(F)(F)O3)nc(C(=O)O)c1Cl", "75 to 84%"),
    ("COC(=O)c1nc(-c2cccc3c2OCC3)c(F)c(N)c1Cl", "0 to 29%"),
    ("COC(=O)c1nc(-c2ccc(F)c3c2OCO3)cc(N)c1Cl", "60 to 74%"),
    ("Nc1cc(-c2ccc(F)c3c2OC(F)(F)O3)nc(C(=O)O)c1Cl", "85 to 94%"),
    ("COC(=O)c1nc(-c2ccc(Cl)c3c2OC(F)(F)O3)nc(N)c1OC", "45 to 59%"),
    ("COC(=O)c1nc(-c2cccc3c2OCO3)cc(N)c1Cl", "30 to 44%"),
    ("COC(=O)c1nc(-c2ccc(F)c3c2OC(F)(F)O3)cc(N)c1Cl", "60 to 74%"),
    ("COC(=O)c1nc(-c2ccc3c(c2)SCO3)c(F)c(N)c1Cl", "30 to 44%"),
    ("COC(=O)c1nc(-c2ccc(F)c3c2OCO3)nc(N)c1OC", "0 to 29%"),
    ("COC(=O)c1nc(-c2cccc3c2OC(F)(F)O3)nc(N)c1OC", "0 to 29%"),
    ("Nc1c(F)c(-c2ccc(Cl)c3c2OC(F)(F)O3)nc(C(=O)O)c1Cl", "95 to 100%"),
]
